- ASSAYED_TARGET: AgLsb1
- PROTOCOL_SUMMARY: SPOT peptide array binding signal intensity (averaged, normalized) (arbitrary units (background-subtracted, floor 0; scale differs between SH3 domains)); higher = stronger binding of the SH3 domain to the peptide
So I've got a bunch of binders here, and I need their SPOT peptide array binding signal intensity values.
Answer field: number only, no words.

Request: Look up SPOT peptide array binding signal intensity for this binder: SKAKRPKFLLDLQIK
Result: 2.75

Request: Another binder to look at: PPLPRAPPVPPATFE
Result: 17.2

Request: Same question, VKPRQLFPIPLNKVD this time
Result: 1600

Request: Can you check VNFRRIPTGPDSPPT next?
Result: 0.5

Request: Next up: NILKRRPLKLEAPSK
Result: 0.5

Request: One more binder: RRTRLRPPTPLSQLL
Result: 154

Request: Param item: NPTKSPPPPPSPSTM
Result: 1.25

Request: Again, but for RMVRRRPLRVQFSAR
Result: 16.5

Request: Could you do the same for RSRRSSFAYPQQVAI , please?
Result: 2.5

Request: Cool, now RRSKSLPTTPGIRSG
Result: 50.8

Request: Moving on to VDFTLPPPPPPPGLD
Result: 1.5

Request: What do you have for WTQRRGPLVVYAEDN ?
Result: 4

Request: Please answer likewise for LYKRKPILLPDPKPL
Result: 208
